Measured fraction unbound at 1 h, listed per entry for reference.
- target_entity: Albumin (Homo sapiens, UniProt P02768)
- Sequence (P02768 whole entry): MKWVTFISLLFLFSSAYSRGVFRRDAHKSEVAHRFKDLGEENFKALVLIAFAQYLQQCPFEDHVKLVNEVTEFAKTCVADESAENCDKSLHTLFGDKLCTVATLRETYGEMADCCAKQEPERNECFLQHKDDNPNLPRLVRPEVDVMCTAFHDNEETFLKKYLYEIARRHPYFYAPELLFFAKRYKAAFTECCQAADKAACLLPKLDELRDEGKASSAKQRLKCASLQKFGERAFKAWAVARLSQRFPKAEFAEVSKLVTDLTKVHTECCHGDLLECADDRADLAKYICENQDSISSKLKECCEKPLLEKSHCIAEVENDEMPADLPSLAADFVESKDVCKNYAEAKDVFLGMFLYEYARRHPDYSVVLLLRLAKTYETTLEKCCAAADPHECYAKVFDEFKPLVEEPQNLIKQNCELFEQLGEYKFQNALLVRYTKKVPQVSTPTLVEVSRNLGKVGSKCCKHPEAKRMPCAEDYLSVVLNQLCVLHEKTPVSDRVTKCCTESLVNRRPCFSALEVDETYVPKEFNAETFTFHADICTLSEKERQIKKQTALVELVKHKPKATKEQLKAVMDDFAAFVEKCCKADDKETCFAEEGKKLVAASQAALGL
- assay_name: Binding affinity to human serum albumin after 60 mins by ultrafiltration-based HPLC analysis
- Format: ADME
- condition_label: human serum albumin, read-out: PB (converted)
*1 amine or outer side, *2 acyl side, *3 side chain or, on linkers, in order; H or OH if unused. Side-chain parts run from the residue outwards. The star is where a group is joined. Mycophenolyl = COc1c(C)c2c(c(O)c1C/C=C(\C)CCC(=O)*)C(=O)OC2; γGlu = O=C(O)[C@H](CCC(=O)[*:2])N[*:1]; 12Ado = NCCCCCCCCCCCC(=O)O; Ahx = NCCCCCC(=O)O
// print number alone

H-HGEGTYTNDVTEYLEEEAAK([γGlu-12Ado-Mycophenolyl])EFIEWLIKGKPSSGAPPSKKKKKK-OH    0.146

Shifting focus to the substance that follows.
**Q:** Form field - read-out: fraction unbound at 1 h; system: Albumin (Homo sapiens, UniProt P02768); submitted item: H-HGEGTYTNDVTEYLEEEAAK([γGlu-Ahx-Mycophenolyl])EFIEWLIKGKPSSGAPPSKKKKKK-OH
**A:** 0.361
